Biological target: 5-hydroxytryptamine receptor 5A (Homo sapiens)
Experiment: Binding affinity towards 5-hydroxytryptamine 5A receptor using lysergic acid diethylamide (LSD) as radioligand
The reader will find reported Ki values listed item by item below.

COc1ccc2[nH]c3c(C)nccc3c2c1 :: > 10 µM
COc1ccc2c3c([nH]c2c1)CNCC3 :: > 10 µM
COc1ccc2c3c([nH]c2c1)C(C)=NCC3 [HARMALINE] :: > 10 µM
Cn1ccc2c1CCN(CCCOc1ccc(F)cc1)C2 :: 1.92 µM

IN: If you can, please state the reported Ki value of "CC1=NCCc2c1n(C)c1ccccc21" .
OUT: > 10 µM

###

# pKi per entry
Molecular target: 5-hydroxytryptamine receptor 5A (Homo sapiens, UniProt P47898)
Sequence (P47898 whole entry): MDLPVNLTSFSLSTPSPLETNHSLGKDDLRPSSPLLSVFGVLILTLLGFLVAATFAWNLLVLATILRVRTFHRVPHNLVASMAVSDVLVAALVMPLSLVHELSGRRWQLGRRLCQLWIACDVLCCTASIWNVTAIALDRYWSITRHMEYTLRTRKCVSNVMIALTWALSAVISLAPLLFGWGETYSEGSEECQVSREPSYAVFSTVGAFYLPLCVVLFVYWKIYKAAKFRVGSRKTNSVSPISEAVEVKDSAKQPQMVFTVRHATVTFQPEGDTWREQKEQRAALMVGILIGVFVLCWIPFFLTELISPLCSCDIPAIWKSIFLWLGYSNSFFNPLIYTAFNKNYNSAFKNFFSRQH
Experiment: Binding affinity towards human 5-hydroxytryptamine 5A receptor using LSD as radioligand
When answering, recall that pKi equals minus log10 of the concentration in mol/L, and write that number alone.

For orientation, consider the following solved cases.
COc1cccc2c3c(n(C)c12)CCN(CCCOc1ccc(F)cc1)C3 :: 5.86
CCn1c2c(c3ccccc31)CN(CCCOc1ccccc1)CC2 :: 7.00
Cn1c2c(c3ccccc31)CN(CCCOc1ccccc1)CC2 :: 7.00
COc1ccc(OCCCN2CCc3c(c4ccccc4n3C)C2)cc1 :: 6.46
Cn1c2c(c3ccccc31)CN(CCCC(O)c1ccc(F)cc1)CC2 (stereo unspecified) :: 6.55
Cn1c2c(c3ccccc31)CN(CCCOc1ccc([N+](=O)[O-])cc1)CC2 :: 6.60
Cn1c2c(c3ccccc31)CN(CCC/C(=N/O)c1ccc(F)cc1)CC2 :: 6.47
Cn1c2c(c3cccc(Cl)c31)CN(CCCOc1ccc(F)cc1)CC2 :: 6.65
COc1ccc2c(c1)c1c(n2C)CCN(CCCOc2ccc(F)cc2)C1 :: 6.78
Cn1c2c(c3ccccc31)CN(CC#CCCc1ccccc1)CC2 :: 5.75

IN: Form: Entry = "Cn1c2c(c3ccccc31)CN(C/C=C/CCc1ccccc1)CC2" | System = 5-hydroxytryptamine receptor 5A (Homo sapiens, UniProt P47898) | pKi = ____
OUT: 6.73

IN: Observed pKi on 5-hydroxytryptamine receptor 5A (Homo sapiens, UniProt P47898) for "Cn1c2c(c3ccccc31)CN(CCCOc1ccc(Cl)c(Cl)c1)CC2" , please.
OUT: 6.70

IN: Lab note: need pKi with 5-hydroxytryptamine receptor 5A (Homo sapiens, UniProt P47898) for entry "Cn1c2c(c3ccccc31)CN(CCCOc1ccc(N)cc1)CC2" , please look it up.
OUT: 6.72

IN: Lookup: pKi / 5-hydroxytryptamine receptor 5A (Homo sapiens, UniProt P47898) / "Cn1c2c(c3ccccc31)CN(CCCO)CC2"
OUT: 5.95

IN: Form field: pKi recorded for "Cn1c2c(c3ccccc31)CN(CCCCCc1ccccc1)CC2" with 5-hydroxytryptamine receptor 5A (Homo sapiens, UniProt P47898) (enter value)
OUT: 6.76

IN: # query: pKi | item "Cn1c2c(c3ccccc31)CN(CCOc1ccc(F)cc1)CC2" | system: 5-hydroxytryptamine receptor 5A (Homo sapiens, UniProt P47898)
OUT: 6.03

IN: Test system 5-hydroxytryptamine receptor 5A (Homo sapiens, UniProt P47898); read-out pKi; what value for "Cn1c2c(c3ccccc31)CN(C/C=C\CCc1ccccc1)CC2" ?
OUT: 6.68

IN: Param readout= pKi; system= 5-hydroxytryptamine receptor 5A (Homo sapiens, UniProt P47898); entry= "Cn1c2c(c3ccccc31)CN(CCCOc1ccc(Cl)cc1)CC2" ; returns value.
OUT: 6.70

IN: Param readout = pKi; param system = 5-hydroxytryptamine receptor 5A (Homo sapiens, UniProt P47898); param query = "Cn1c2c(c3ccccc31)CCN(CCCOc1ccccc1)C2" ; response: value
OUT: 6.21

IN: # get_value(readout= pKi, system= 5-hydroxytryptamine receptor 5A (Homo sapiens, UniProt P47898)) for "Cn1c2c(c3ccccc31)CN(CCCC(=O)c1ccccc1)CC2"
OUT: 6.77

IN: # returns recorded pKi (system: 5-hydroxytryptamine receptor 5A (Homo sapiens, UniProt P47898)) for "Cn1c2c(c3cc(Cl)ccc31)CN(CCCOc1ccc(F)cc1)CC2"
OUT: 6.57
